Experiment: clinical
Details: human, in vivo
Description: Fraction absorbed in human
quantity-kind: Fa

Suppose we examine the molecule CC1=C(CC(=O)O)c2cc(F)ccc2/C1=C\c1ccc([S+](C)[O-])cc1 (configuration not stated) ; what Fa value has been reported?
90%

Do the same for CC[C@H]1OC(=O)[C@H](C)[C@@H](O[C@H]2C[C@@](C)(OC)[C@@H](O)[C@H](C)O2)[C@H](C)[C@@H](O[C@@H]2O[C@H](C)C[C@H](N(C)C)[C@H]2O)[C@](C)(O)C[C@@H](C)C(=O)[C@H](C)[C@@H](O)[C@]1(C)O [ERYTHROMYCIN] please
35%

Do the same for Cc1cn([C@H]2C[C@H](N=[N+]=[N-])[C@@H](CO)O2)c(=O)[nH]c1=O [ZIDOVUDINE] please
90%

Do the same for COc1cc2nc(N3CCN(C(=O)c4ccco4)CC3)nc(N)c2cc1OC [PRAZOSIN] please
100%

Do the same for CC(=O)N1CCN(c2ccc(OCC3COC(Cn4ccnc4)(c4ccc(Cl)cc4Cl)O3)cc2)CC1 (configuration not stated) [KETOCONAZOLE] please
90%

Do the same for Cc1c(O)cccc1C(=O)N[C@@H](CSc1ccccc1)[C@H](O)CN1C[C@H]2CCCC[C@H]2C[C@H]1C(=O)NC(C)(C)C please
3%

Do the same for O=C(CCCN1CCC(O)(c2ccc(Cl)cc2)CC1)c1ccc(F)cc1 [HALOPERIDOL] please
60%

----------
Target: ATP-binding cassette sub-family C member 2 (Homo sapiens, UniProt Q92887)
Sequence (Q92887 whole entry): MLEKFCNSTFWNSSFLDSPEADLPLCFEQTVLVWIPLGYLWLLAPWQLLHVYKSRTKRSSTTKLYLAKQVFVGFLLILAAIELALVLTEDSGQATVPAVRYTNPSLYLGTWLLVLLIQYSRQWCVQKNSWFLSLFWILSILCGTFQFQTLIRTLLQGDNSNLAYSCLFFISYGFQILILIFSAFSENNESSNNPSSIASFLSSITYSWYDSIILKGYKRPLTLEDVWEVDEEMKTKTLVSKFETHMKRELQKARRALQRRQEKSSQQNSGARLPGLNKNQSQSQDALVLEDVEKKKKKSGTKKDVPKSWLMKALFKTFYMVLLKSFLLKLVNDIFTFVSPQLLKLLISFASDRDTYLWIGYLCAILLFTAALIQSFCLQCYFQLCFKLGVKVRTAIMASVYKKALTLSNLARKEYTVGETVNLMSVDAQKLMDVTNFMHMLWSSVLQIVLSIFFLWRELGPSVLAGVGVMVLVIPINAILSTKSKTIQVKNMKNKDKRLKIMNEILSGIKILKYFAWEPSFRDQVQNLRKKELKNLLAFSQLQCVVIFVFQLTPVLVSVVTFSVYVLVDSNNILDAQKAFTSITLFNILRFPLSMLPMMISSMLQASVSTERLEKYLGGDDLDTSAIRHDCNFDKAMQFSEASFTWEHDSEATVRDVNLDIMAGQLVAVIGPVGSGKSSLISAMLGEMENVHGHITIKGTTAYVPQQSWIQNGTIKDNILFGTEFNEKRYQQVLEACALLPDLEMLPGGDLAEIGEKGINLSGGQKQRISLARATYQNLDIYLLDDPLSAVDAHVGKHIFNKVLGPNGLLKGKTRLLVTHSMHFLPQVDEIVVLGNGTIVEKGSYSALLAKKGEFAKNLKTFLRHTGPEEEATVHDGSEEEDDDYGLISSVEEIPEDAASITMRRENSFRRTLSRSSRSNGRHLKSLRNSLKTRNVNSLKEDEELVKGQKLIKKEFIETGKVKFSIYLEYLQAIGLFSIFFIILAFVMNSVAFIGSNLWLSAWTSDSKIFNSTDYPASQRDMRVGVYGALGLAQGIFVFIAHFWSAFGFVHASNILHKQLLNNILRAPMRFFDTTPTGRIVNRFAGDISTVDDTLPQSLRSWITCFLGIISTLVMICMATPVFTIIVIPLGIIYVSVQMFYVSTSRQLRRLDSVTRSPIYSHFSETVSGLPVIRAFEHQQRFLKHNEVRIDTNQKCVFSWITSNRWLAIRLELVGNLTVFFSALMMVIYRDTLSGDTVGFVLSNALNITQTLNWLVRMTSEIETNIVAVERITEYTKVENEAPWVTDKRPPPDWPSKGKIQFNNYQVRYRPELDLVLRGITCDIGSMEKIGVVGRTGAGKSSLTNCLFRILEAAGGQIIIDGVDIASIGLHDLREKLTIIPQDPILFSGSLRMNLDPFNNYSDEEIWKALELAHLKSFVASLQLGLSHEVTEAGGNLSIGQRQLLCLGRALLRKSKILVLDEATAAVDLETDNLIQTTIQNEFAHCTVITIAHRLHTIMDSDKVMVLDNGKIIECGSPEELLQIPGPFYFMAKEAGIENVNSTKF
Assay: Fold activity change at MRP2 ATPase (unknown origin) relative to control
Format: ADME
Task for the reader: assign each of the following molecules its reported fold change (FC).
Returns: the value as a bare number; no unit string appended.

Suppose we examine the molecule CC[C@H]1OC(=O)[C@H](C)[C@@H](O[C@H]2C[C@@](C)(OC)[C@@H](O)[C@H](C)O2)[C@H](C)[C@@H](O[C@@H]2O[C@H](C)C[C@H](N(C)C)[C@H]2O)[C@](C)(O)C[C@@H](C)C(=O)[C@H](C)[C@@H](O)[C@]1(C)O [ERYTHROMYCIN] ; what fold change (FC) value has been reported?
1

Do the same for O=C(O)c1cc(/N=N/c2ccc(S(=O)(=O)Nc3ccccn3)cc2)ccc1O [SULFASALAZINE] please
9

Do the same for CN(Cc1cnc2nc(N)nc(N)c2n1)c1ccc(C(=O)N[C@@H](CCC(=O)O)C(=O)O)cc1 [METHOTREXATE] please
-0.2

Do the same for COc1cc2c(c(OC)c1OC)-c1ccc(OC)c(=O)cc1[C@@H](NC(C)=O)CC2 [COLCHICINE] please
-0.4

Do the same for O=c1[nH]c2ccccc2n1CCCN1CCC(n2c(=O)[nH]c3cc(Cl)ccc32)CC1 [DOMPERIDONE] please
3

----------
Assay: in vitro
Settings: human, Caco-2
quantity-kind: Papp A→B at 2 h, 10 µM (×10⁻⁶ cm/s)
Unit ×10⁻⁶ cm/s implied. Number only.

Suppose we examine the compound CC(C)(C)NC(=O)[C@@H]1CN(Cc2cccnc2)CCN1C[C@@H](O)C[C@@H](Cc1ccccc1)C(=O)N[C@H]1c2ccccc2C[C@H]1O.O ; what Papp A→B at 2 h, 10 µM value has been reported?
2.4

Do the same for CC(C)c1nc(N(C)S(C)(=O)=O)nc(-c2ccc(F)cc2)c1/C=C/[C@@H](O)C[C@@H](O)CC(=O)O [ROSUVASTATIN] please
0.5

Do the same for CN1CCN(CCCN2c3ccccc3Sc3ccc(C(F)(F)F)cc32)CC1 [TRIFLUOPERAZINE] please
0.5

Do the same for CCn1cc(C(=O)O)c(=O)c2cc(F)c(N3CCNCC3)cc21 [NORFLOXACIN] please
1.9

Do the same for C[C@H]1C[C@@H]2[C@H]([C@@H](O)C[C@@]3(C)[C@H]2CC[C@]3(O)C(=O)CO)[C@@]2(C)C=CC(=O)C=C12 [METHYLPREDNISOLONE] please
8.5

Do the same for COc1cc(Cc2cnc(N)nc2N)cc(OC)c1OC [TRIMETHOPRIM] please
15.9

Do the same for COC(=O)C1=C(C)NC(C)=C(C(=O)OCCN(C)Cc2ccccc2)C1c1cccc([N+](=O)[O-])c1 (configuration not stated) [NICARDIPINE] please
5

----------
Settings: human, caco-2, 2 h, 10 µM
Numbered stars: 1 amine (or outer) side, 2 acyl side, 3 side chain; on linkers, the order of the positions; unused ones are H or OH. Bridge positions count the residues as written; N and C are the ends. Square brackets hold non-standard residues; d marks the D form. Peptide text beside a SMILES is read from it. I, II: the chains in the order shown. Actinocin(9to1) = Cc1c2oc3c(C)ccc(C(=O)[*:1])c3nc-2c(C(=O)[*:2])c(N)c1=O; NMeV = CN[C@H](C(=O)O)C(C)C; Sar = CNCC(=O)O
quantity-kind: Papp (×10⁻⁶ cm/s)
Unit ×10⁻⁶ cm/s implied. Number only.

Suppose we examine the molecule CC(C)(C)NC(=O)[C@@H]1C[C@@H]2CCCC[C@@H]2CN1C[C@@H](O)[C@H](Cc1ccccc1)NC(=O)[C@H](CC(N)=O)NC(=O)c1ccc2ccccc2n1 ; what Papp value has been reported?
5.6

Do the same for O=C1C(CC[S+]([O-])c2ccccc2)C(=O)N(c2ccccc2)N1c1ccccc1 (centres undefined) please
5.8

Do the same for Cc1c2oc3c(C)ccc(C(=O)N[C@@H]4C(=O)N[C@H](C(C)C)C(=O)N5CCC[C@H]5C(=O)N(C)CC(=O)N(C)[C@@H](C(C)C)C(=O)O[C@@H]4C)c3nc-2c(C(=O)N[C@@H]2C(=O)N[C@H](C(C)C)C(=O)N3CCC[C@H]3C(=O)N(C)CC(=O)N(C)[C@@H](C(C)C)C(=O)O[C@@H]2C)c(N)c1=O [DACTINOMYCIN] (I: T[dV]P[Sar][NMeV] / II: T[dV]P[Sar][NMeV]; ester I:1-I:C, II:1-II:C; linker I:N-II:N via Actinocin(9to1)) please
4.5

Do the same for Nc1cc(-c2ccncc2)c[nH]c1=O please
16.6

Do the same for CC[C@]1(O)C[C@H]2CN(CCc3c([nH]c4ccccc34)[C@@](C(=O)OC)(c3cc4c(cc3OC)N(C=O)[C@H]3[C@@](O)(C(=O)OC)[C@H](OC(C)=O)[C@]5(CC)C=CCN6CC[C@]43[C@@H]65)C2)C1 please
3.5

Do the same for CC(C)n1c(/C=C/C(O)CC(O)CC(=O)O)c(-c2ccc(F)cc2)c2ccccc21 (centres undefined) please
15.3

Do the same for CC[C@@]1(O)C(=O)OCc2c1cc1n(c2=O)Cc2cc3c(CN(C)C)c(O)ccc3nc2-1 please
7.1

Do the same for Cc1ccccc1N1C(=O)c2cc(S(N)(=O)=O)c(Cl)cc2NC1C (centres undefined) please
9.6

Do the same for CC1=C(CC(=O)O)c2cc(F)ccc2/C1=C\c1ccc([S+](C)[O-])cc1 (centres undefined) please
13.5

----------
Assay: in vitro
Conditions: human, Caco-2
Just so you know, the groups by Papp A→B at 2 h, 10 µM go like this: low value (below 1 ×10⁻⁶ cm/s), medium value (1 ×10⁻⁶ cm/s to below 4 ×10⁻⁶ cm/s), high value (4 ×10⁻⁶ cm/s or more)

# bin lookup: classify CN(C)C(=O)C(CCN1CCC(O)(c2ccc(Cl)cc2)CC1)(c1ccccc1)c1ccccc1 [LOPERAMIDE] by its Papp A→B at 2 h, 10 µM
high value

Do the same for O=C1c2c(O)ccc(O)c2C(=O)c2c(NCCNCCO)ccc(NCCNCCO)c21 [MITOXANTRONE] please
high value

Do the same for O=C(O)CN(CCN(CC(=O)O)Cc1ccccc1O)Cc1ccccc1O please
low value

Do the same for C=CCN1CC[C@]23c4c5ccc(O)c4O[C@H]2C(=O)CC[C@@]3(O)[C@H]1C5 [NALOXONE] please
high value

Do the same for COC(=O)[C@H]1[C@H]2C[C@@H]3c4[nH]c5cc(OC)ccc5c4CCN3C[C@H]2C[C@@H](OC(=O)c2cc(OC)c(OC)c(OC)c2)[C@@H]1OC [RESERPINE] please
medium value

Do the same for CCCC(=O)Nc1ccc(OCC(O)CNC(C)C)c(C(C)=O)c1 (stereo not drawn) [ACEBUTOLOL] please
medium value

Do the same for COc1ccc([C@@H]2Sc3ccccc3N(CCN(C)C)C(=O)[C@@H]2OC(C)=O)cc1 [DILTIAZEM] please
high value

Do the same for CNS(=O)(=O)Cc1ccc2[nH]cc(CCN(C)C)c2c1 please
medium value

Do the same for CC[C@H]1OC(=O)[C@H](C)[C@@H](O[C@H]2C[C@@](C)(OC)[C@@H](O)[C@H](C)O2)[C@H](C)[C@@H](O[C@@H]2O[C@H](C)C[C@H](N(C)C)[C@H]2O)[C@](C)(O)C[C@@H](C)C(=O)[C@H](C)[C@@H](O)[C@]1(C)O [ERYTHROMYCIN] please
low value

Do the same for COc1cc([C@@H]2c3cc4c(cc3[C@@H](O[C@@H]3O[C@@H]5CO[C@@H](C)O[C@H]5[C@H](O)[C@H]3O)[C@H]3COC(=O)[C@H]23)OCO4)cc(OC)c1O [ETOPOSIDE] please
low value

Do the same for COc1cc([C@@H]2c3cc4c(cc3[C@@H](O[C@@H]3O[C@@H]5CO[C@@H](c6cccs6)O[C@H]5[C@H](O)[C@H]3O)[C@H]3COC(=O)[C@H]23)OCO4)cc(OC)c1O [TENIPOSIDE] please
low value

Do the same for CN(Cc1cnc2nc(N)nc(N)c2n1)c1ccc(C(=O)N[C@@H](CCC(=O)O)C(=O)O)cc1 [METHOTREXATE] please
medium value
